Value source: PubChem BioAssay AID1578

- measurement-protocol: NOD1 signaling inhibitors, primary screen, cell-based, luminescence, uHTS (AID 1578);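 note: HEK-293T reporter cells stimulated with the NOD1 agonist gamma-tri-DAP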
- test-conditions: NOD1-driven NF-kB luciferase reporter cells, at 4 µM, active compounds read high
The whole screen tested about 290,000 compounds, of which about 3,000 (1%) were called active. For the sample, actives were picked, then their nearest neighbours and some compounds at random.
In this section we review reported inhibition values for a set of compounds.
property-label: inhibition (%)

compound	property-label	assay-result
COc1ccccc1N1CCN(C(=O)CCCNC(=O)Cn2cnc3sc(C)c(C)c3c2=O)CC1	inhibition	17.8
O=C(/C(=C/O)N=Nc1ccccc1)c1cccs1	inhibition	-9.4
CC(=O)NC1(c2ccccc2)CCN(c2cc(C)nc(-c3ccccc3)n2)CC1	inhibition	52.2
CC(=O)Nc1ccc(OCc2cccc3ccccc23)cc1	inhibition	29.7
CC(C)N(C(=O)COC(=O)c1ccc(Cl)nc1)C(C)C	inhibition	-35.6
Cn1c(SCC(=O)c2ccc(F)cc2)nnc1-c1ccccc1N	inhibition	-7.5
COC(=O)c1ccc(CN2C(=O)C(C)N(C(=O)c3c(F)cccc3F)c3ccccc32)cc1 (configuration not stated)	inhibition	-2.1
Cc1ccc(NNC(=O)CCc2ccccc2)c(C)c1	inhibition	-5
C=CCn1cc(C(=O)OCC)c(=O)c2cc(F)c(F)cc21	inhibition	2.3
CC1C(=O)N(Cc2ccc(F)cc2)c2ccccc2N1C(=O)c1c(F)cccc1F (configuration not stated)	inhibition	43.5
CC(=O)CSc1nnc2c3ccccc3nc(C(C)(C)C)n12	inhibition	-19.2
COc1ccc(N=N/C(=C\O)C(=O)c2cccs2)cc1	inhibition	41.3
CCC(=O)NCCc1nc2cc(NC(=O)COc3ccccc3)ccc2n1C	inhibition	-21.6
Cc1ccc(C(=O)CSc2nnc3c4ccccc4nc(C(C)(C)C)n23)cc1	inhibition	92.5
Cc1cc2c3c(c1)C1(C(=O)N3C(C)(C)CC2C)C(C#N)=C(N)OC2=C1C(=O)CC(C)(C)C2 (configuration not stated)	inhibition	-22.2
CCN(CC)S(=O)(=O)c1ccc(NS(=O)(=O)c2ccc3oc(=O)[nH]c3c2)cc1	inhibition	22.1
Cc1cc2c3c(c1)C(C)(c1ccccc1)CC(C)(C)N3C(=O)C21C(C#N)=C(N)OC2=C1C(=O)CC(C)(C)C2 (configuration not stated)	inhibition	77.1
CC1=CC(C)(C)N2C(=O)C3(C(C#N)=C(N)OC4=C3C(=O)CC(C)(C)C4)c3cc(C)cc1c32 (configuration not stated)	inhibition	13.2
Cc1ccc(C(=O)CSc2nnc(-c3ccccc3N)n2C)cc1C	inhibition	-30.8
Oc1ccc(/C=N/Nc2ccnc3cc(Cl)ccc23)c(O)c1O	inhibition	-3.8
Cc1cccc(N=N/C(=C\O)C(=O)c2cccs2)c1	inhibition	27
CC(=O)NC1(c2ccccc2)CCN(c2nc(C)cc(C)n2)CC1	inhibition	-0.9

###

- measurement-protocol: NOD1 signaling inhibitors, primary screen, cell-based, luminescence, uHTS (AID 1578);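 note: HEK-293T reporter cells stimulated with the NOD1 agonist gamma-tri-DAP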
- test-conditions: NOD1-driven NF-kB luciferase reporter cells, at 4 µM, active compounds read high
Screen size: about 290,000 compounds; about 3,000 (1%) were called active. The full list was thinned out, with actives kept by preference.
property-label: inhibition (%)

compound	property-label	assay-result
COc1ccc(C(=O)/C=C/C(=O)N(Cc2ccc(F)cc2)C(C(=O)NC2CCCCC2)c2ccncc2)c(O)c1 (stereo unspecified)	inhibition	-6.1
O=C1c2ccccc2C(=O)c2c1cccc2-n1nnc2ccccc21	inhibition	3.1
O=C(Nc1ccc(F)cc1)c1nc[nH]c1C(=O)Nc1ccc([N+](=O)[O-])cc1	inhibition	45
CCOC(=O)c1[nH]cnc1C(=O)Nc1ccc([N+](=O)[O-])cc1	inhibition	-7.2
NC(=O)C1CCN(C(=O)c2ccc3nc(N4CCCCC4)sc3c2)CC1	inhibition	-2.5
CCc1cc2c(=O)[nH]c(Cc3ccccc3)nc2s1	inhibition	0.4
Cc1cc(C)c(S(=O)(=O)Nc2ccncc2)cc1C	inhibition	-25.9
N#Cc1c(NC(=O)c2ccccc2Cl)n(Cc2ccccc2)c2nc3ccccc3nc12	inhibition	83.5
CC(=O)N/C(N)=N/c1nc2cc(C)ccc2o1	inhibition	-10.1
O=Cc1cc(CCC(=O)O)ccc1O	inhibition	63
CC(C)(C)C1CCC(=NNC(=S)Nc2cccnc2)CC1 (stereo unspecified)	inhibition	-17.4
Cc1ccc(C)c(N2CCN(C(=O)CCS(=O)(=O)c3cccc4nonc34)CC2)c1	inhibition	1.8
Cc1ccc(CNC(=O)/C=C/c2ccc(Br)o2)cc1	inhibition	-7.4
CC1=C(C(=O)OCc2ccc3c(c2)OCO3)C(c2cccc([N+](=O)[O-])c2)NC(=O)N1 (stereo unspecified)	inhibition	63.2
CCn1c(=O)c2cc(C(=O)NCc3cccs3)sc2c2ccccc21	inhibition	-17.9
CCCCn1c(NC(=O)c2ccccc2Cl)c(C#N)c2nc3ccccc3nc21	inhibition	20
Cc1ccc(-n2c(SCC(=O)Nc3ccc(C(=O)O)cc3)nnc2-c2ccncc2)cc1	inhibition	-9.4
O=C(CN1CCOCC1)N/N=C/c1ccc(-c2cccc(Cl)c2Cl)o1	inhibition	-9.3
CCOC(=O)c1sc(N(Cc2ccccc2)C(=O)COC(=O)c2ccccc2O)nc1C	inhibition	-48
COc1ccc(C2NC(=O)NC(C)=C2C(=O)OCc2ccc3c(c2)OCO3)cc1OC (stereo unspecified)	inhibition	15.1
CC(=O)Oc1cc(OC(C)=O)c2c(=O)c(-c3ccc4c(c3)OCCCO4)c(C)oc2c1	inhibition	-3
O=C(COC(=O)CCSc1ccccc1)Nc1ccc(F)cc1Cl	inhibition	-14
CN1C(=O)S/C(=C/c2cccnc2)C1=O	inhibition	-3.3
O=C(O)Cc1ccc(O)c(O)c1	inhibition	-0.7
CCCCn1c(NC(=O)c2ccccc2)c(C#N)c2nc3ccccc3nc21	inhibition	88.5
N#CCn1cnc2sc(-c3ccccc3)cc2c1=O	inhibition	-27.8
Cc1ccc2oc(/N=C(\N)NC(=O)C3CC3)nc2c1	inhibition	-13.8
O=c1[nH]c(CCl)nc2cc(-c3ccc(Cl)cc3)sc12	inhibition	92.6
O=C(O)c1ccc(NC2=C(n3nnc4ccccc43)C(=O)c3ccccc3C2=O)cc1	inhibition	-3.8
O=S(=O)(NCc1nc2ccccc2[nH]1)c1ccccc1	inhibition	-21.9
CCOc1cccc(CNc2ccc(O)cc2)c1OCc1ccc(Cl)cc1Cl	inhibition	7.6
CCc1nnc(NC(=O)C2CCN(c3cnccn3)CC2)s1	inhibition	-4.1
Cc1cccc(C)c1N1CCN(c2nc(N(C)C)oc(=O)c2C#N)CC1	inhibition	18.2
CC1=C/C(=N\NC(=S)NCCc2ccccc2)CC(C)(C)C1	inhibition	-43.4
O=C(N/N=C/c1ccccc1)c1ccc(-c2ccccc2)cc1	inhibition	-17.2
CCOc1ccc(NC(=O)CS(=O)CC(=O)N(CC(=O)NC(C)(C)C)C2CCCC2)cc1 (stereo unspecified)	inhibition	-23.1
CCCCn1c(NC(C)=O)c(C#N)c2nc3ccccc3nc21	inhibition	22.5
O=C(Nc1ccc([N+](=O)[O-])cc1)c1nc[nH]c1C(=O)NC1CCCCC1	inhibition	80.7
COc1ccc(-c2cc3nc[nH]c(=O)c3s2)cc1	inhibition	-1.7
O=C(Cn1cnc(S(=O)(=O)N2CCCCC2)c1)NCc1ccco1	inhibition	-11.7
O=c1[nH]cnc2cc(-c3ccc(Br)cc3)sc12	inhibition	-63.3
C=CCn1c(NC(=O)c2ccccc2Cl)c(C#N)c2nc3ccccc3nc21	inhibition	28.8
CC(=O)OC1C2CCC1C([N+]1(C)CCCCC1)CC2 (stereo unspecified)	inhibition	-31.7
CCc1ccc(C(C(=O)NC2CCCC2)N(C(=O)/C=C/C(=O)Nc2cc(C)on2)c2ccccc2C)cc1 (stereo unspecified)	inhibition	76.7
CCCCn1c(NC(=O)CC)c(C#N)c2nc3ccccc3nc21	inhibition	-7.1
O=C(O)CCCNC(=O)c1cncc(O)c1	inhibition	15.1

###

- measurement-protocol: NOD1 signaling inhibitors, primary screen, cell-based, luminescence, uHTS (AID 1578);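 note: HEK-293T reporter cells stimulated with the NOD1 agonist gamma-tri-DAP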
- test-conditions: NOD1-driven NF-kB luciferase reporter cells, at 4 µM, active compounds read high
The whole screen tested about 290,000 compounds, of which about 3,000 (1%) were called active. The full list was thinned out, with actives kept by preference.
In this section we review reported inhibition values for a set of compounds.

compound	inhibition, %
Cc1cc(NC(=O)CN(C)C)c([N+](=O)[O-])cc1C	-1.4
CC1CCCN(S(=O)(=O)c2ccc3oc(=O)ccc3c2)C1 (stereo unspecified)	-39.5
Cc1ccc(S(=O)(=O)N(CC(=O)N2CCC(C)CC2)c2ccccc2)cc1	-4.7
O=C(/C=C/c1cccnc1)/C=C/c1cccnc1	49.7
Cc1ccc2cccc(OCc3ccccc3)c2n1	-0.7
CCN(CC)c1ccc(N=Cc2ccc([N+](=O)[O-])o2)cc1	-31.4

###

- measurement-protocol: NOD1 signaling inhibitors, primary screen, cell-based, luminescence, uHTS (AID 1578);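 note: HEK-293T reporter cells stimulated with the NOD1 agonist gamma-tri-DAP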
- test-conditions: NOD1-driven NF-kB luciferase reporter cells, at 4 µM, active compounds read high
About 3,000 (1%) of roughly 290,000 compounds were called active. The full list was thinned out, with actives kept by preference.

compound	inhibition, %
CC1CCN(CCCNC(=O)c2ccc3c(Cl)c4c(nc3c2)CCCC4)CC1	0.2
COc1cccc(CNC(=O)N2CCN(S(=O)(=O)c3ccc(Cl)cc3)CC2)c1	12.4
COc1ccc(C2(c3ccc(OC)cc3)NC(=O)N(CC(=O)N(C)C)C2=O)cc1	-33.1
Brc1ccc(C=Nc2ccc3c(c2)OCCOCCOCCO3)s1	-40.4
CCCCC(=O)N/N=C(/C)C1=C(C)C(C)(C)OC1=O	-20.4
CCOC(=O)NC(=O)/C(N=Nc1cc(C)cc(C)c1)=C(\C)O	-20.5
N#CCCn1cc(/C=C/C(=O)O)c(-c2ccc(F)cc2)n1	-31.6
CC1Cc2c([nH]c3ccccc23)C(=O)N1 (stereo unspecified)	26.8
O=C(NC1CC1)C1CCN(C2CCN(C(=O)/C=C/c3cccc(F)c3F)CC2)CC1	-10.9
COc1ccc2[nH]c3c(c2c1)CCC/C3=N\N	-3.8
CCOC(=O)c1cnn(-c2ccc(C(F)(F)F)cn2)c1N	-92.9
